test system: Epidermal growth factor receptor (Homo sapiens), P00533 [L861Q]; conditions: at 0.1 µM
Sequence (P00533 whole entry L861Q): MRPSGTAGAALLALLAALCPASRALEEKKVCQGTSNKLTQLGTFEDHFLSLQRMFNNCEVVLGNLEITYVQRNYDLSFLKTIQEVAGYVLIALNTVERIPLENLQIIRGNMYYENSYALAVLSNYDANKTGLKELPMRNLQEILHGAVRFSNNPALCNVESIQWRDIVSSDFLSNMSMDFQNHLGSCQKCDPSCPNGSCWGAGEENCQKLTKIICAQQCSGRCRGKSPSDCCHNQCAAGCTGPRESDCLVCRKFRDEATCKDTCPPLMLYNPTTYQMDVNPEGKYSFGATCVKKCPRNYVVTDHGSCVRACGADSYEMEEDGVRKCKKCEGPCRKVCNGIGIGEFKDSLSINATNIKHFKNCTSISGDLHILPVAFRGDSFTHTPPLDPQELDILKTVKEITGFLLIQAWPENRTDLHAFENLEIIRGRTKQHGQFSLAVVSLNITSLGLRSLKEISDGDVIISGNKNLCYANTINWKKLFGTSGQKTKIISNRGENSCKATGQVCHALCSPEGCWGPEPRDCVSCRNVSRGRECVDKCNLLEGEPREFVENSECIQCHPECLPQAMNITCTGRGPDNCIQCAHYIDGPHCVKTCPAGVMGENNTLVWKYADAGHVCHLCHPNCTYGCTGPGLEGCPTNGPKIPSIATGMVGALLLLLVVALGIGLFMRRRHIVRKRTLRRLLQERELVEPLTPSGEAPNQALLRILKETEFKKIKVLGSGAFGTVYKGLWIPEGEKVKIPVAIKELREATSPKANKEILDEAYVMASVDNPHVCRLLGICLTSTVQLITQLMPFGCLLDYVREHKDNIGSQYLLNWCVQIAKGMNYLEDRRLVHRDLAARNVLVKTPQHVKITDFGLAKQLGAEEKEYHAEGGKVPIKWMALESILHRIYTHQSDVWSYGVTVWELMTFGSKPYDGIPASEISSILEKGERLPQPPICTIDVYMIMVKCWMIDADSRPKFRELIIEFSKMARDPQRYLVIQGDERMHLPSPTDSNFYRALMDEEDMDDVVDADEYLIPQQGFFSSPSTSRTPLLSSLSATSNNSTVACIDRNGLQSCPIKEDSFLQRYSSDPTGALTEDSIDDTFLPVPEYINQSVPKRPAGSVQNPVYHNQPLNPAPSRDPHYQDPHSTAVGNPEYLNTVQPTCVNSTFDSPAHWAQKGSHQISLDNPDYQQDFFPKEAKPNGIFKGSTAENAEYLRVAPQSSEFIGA

compound-structure: COc1cc(N2CCN(C(C)C)CC2)ccc1Nc1nc(Nc2cccc(F)c2C(=O)O)c2cc[nH]c2n1
tested-on: Epidermal growth factor receptor (Homo sapiens), P00533 [L861Q]
inhibition [%]: 4.97
--
compound-structure: CS(=O)(=O)Nc1ccc(-c2cc(-c3ccccc3)cc(C(N)=O)c2N)cc1
tested-on: Epidermal growth factor receptor (Homo sapiens), P00533 [L861Q]
inhibition [%]: 0.77
--
compound-structure: Cc1cc(O)cc(C)c1/C=C/c1cncc(C(=O)OC(C)(C)C)c1
tested-on: Epidermal growth factor receptor (Homo sapiens), P00533 [L861Q]
inhibition [%]: 2.25
--
compound-structure: O=C(O[C@H]1CN[C@H](C#Cc2cc3ncnc(Nc4ccc(OCc5cccc(F)c5)c(Cl)c4)c3s2)C1)N1CCOCC1
tested-on: Epidermal growth factor receptor (Homo sapiens), P00533 [L861Q]
inhibition [%]: 42.8
--
compound-structure: Cc1nnc(-c2cccc(-c3ccc(C(=O)NCC4CC4)cc3)c2)o1
tested-on: Epidermal growth factor receptor (Homo sapiens), P00533 [L861Q]
inhibition [%]: 3.75
